Target: protein F of hRSV strain B-1 (on RSV B-1-infected Hep2 cells and on virus) (human respiratory syncytial virus, …, UniProt P13843 26-574)
Test: cell ELISA on RSV B-1-infected Hep2 cells, periplasmic extract 1:200
Field: Binding Hep2-B-1 (% control) 1:200 PE. Provide a value for each of the binders that follow.
State just the number; it will be interpreted in % control.

What does the record list as Binding Hep2-B-1 (% control) 1:200 PE for Nanobody 13E12 (VHH, also called PMP13E12; PRSV13E12) VHH: EVQLVESGGGLVQAGGSLRLSCAASGRTFSRYIMGWFRQAPGKEREFVGAISRSGDITSFADFVKGRFTMSRDNAKNTLYLQMNSLEPEDTAVYSCAANSDTYYIYSDIVVPERYDYWGQGTQVTVSS ?
75

Next: Nanobody 20B2 (VHH, also called PMP20B2; PR5V20B2) VHH: EVQLVESGGGLVQAGGSLRLSCEASGRTFSSYDMGWFRQAPGKEREFVAAVTRWSGARGVYADSVKGRFTISRDNAENTVHLQMNSLKPEDTAVYTCAADSTNRNSGAVYYTWAYDYWGQGTQVTVSS
32

Next: Nanobody 1E4 (VHH, also called PMP1E4; PRSV1E4) VHH: EVQLVESGGGLVQAGGSLRLSCEASGRTFSSYGMGWFRQAPGKEREFVAAVSRLSGPRTVYADSVKGRFTISRDNAENTVYLQMNSLKPEDTAVYTCAAELTNRNPGAYYYTWAYDYWGQGTQVTVSS
55

Next: Nanobody 1A2 (VHH, also called PMP1A2; PRSV1A2) VHH: EVQLVESGGGLVQAGGSLRLSCAASERTFSYYAMGWFRQAPGKEREFVATISRSGEWIYYKDAMKGRFTISRDNANNAVYLQMNSLQPEDTAIYYCAADSLGGFRSASDYYNTNTYAYWGQGTQVTVSS
66
